// reported melting point per item

Worked cases, answers included:
{"columns": ["compound", "melting point"],
 "data": [
  ["CCC(=O)N1Cc2cn[nH]c2-c2cc([N+](=O)[O-])ccc21", "219 to 221 °C"],
  ["Cc1cc(C)cc(COC(=O)C(Cc2c[nH]c3ccccc23)NS(C)(=O)=O)c1 (stereo not drawn)", "96 to 97 °C"],
  ["Cc1nc(-c2ccc(Cn3sccc3=O)cc2)cs1", "150 to 152 °C"],
  ["CN(C)c1ccc(C(=O)C=Cc2ccc([N+](=O)[O-])cc2)cc1", "198 to 200 °C"]
]}

Determine its reported melting point: CC(C)(C)C(c1csc2ccccc12)[C@@H](OC(N)=O)c1nc(-c2ccccc2)c[nH]1 (stereo partly drawn)
116 to 120 °C

For the compound OC1CSC(Oc2cncc(-c3ccc(Cl)nc3)c2)C(O)C1O (stereo not drawn) , give its measured melting point value.
211 °C

Identify measured melting point corresponding to CCOC(=O)C(C(=O)C(C)C)C(CC(=O)C(C)C)c1ccc(F)cc1 (stereo not drawn)
57 to 60 °C

State, in one line, measured melting point of Cn1cc2c(n1)Nc1ccc(F)cc1N=C2N1CCN(CC2CC2)CC1
188 to 189 °C

====

Below: a set of entries, each annotated with reported melting point.

{"columns": ["compound", "melting point"],
 "data": [
  ["O=c1oc(-c2cccc(C(F)(F)F)c2)nc2cccc(F)c12", "115 to 121 °C"]
]}

Indicate the recorded melting point value for this compound: O=C(O)C1Cc2cc3c(-c4ccccc4F)noc3cc2O1 (stereo unspecified)
194 to 196 °C

Input COC(=O)Nc1cccc(CC(C)N)c1 (stereo unspecified) , output reported melting point.
93 to 95 °C

Let me know recorded melting point for CC(O)CCCCc1ccc(-c2ccccc2)cc1 (stereo unspecified) , thanks.
71 to 72 °C

Consider the compound COc1cc2c(cc1OC)CN(c1c(C)c(C)c3c(c1C)C(c1ccc(C)cc1)C(C)(C)O3)C2 (stereo unspecified) and give its recorded melting point.
156 to 159 °C

Using known records, supply melting point for COCC(C#N)=Cc1ccc(OC)c(OC)c1
82 to 83 °C

Indicate its recorded melting point; the compound in question is COc1cc2c(cc1C(F)(F)F)N(C(=O)Nc1cccc(-c3cncnc3)c1)CC2
226 to 228 °C

====

observedProperty: melting point

// below: answered compounds
{"columns": ["compound", "experimentalValue"],
 "data": [
  ["CCOC(=O)c1cc2cc(OC(C)=O)ccc2n1C", "87 to 89 °C"],
  ["COC(c1cc(-c2ccc(F)cc2)c(-c2ccc(F)cc2)n1C)(C(F)(F)F)C(F)(F)F", "108 to 110 °C"],
  ["CCOC(=O)CCc1nc(-c2ccccc2)cc2ccccc12", "60 °C"],
  ["N#Cc1ccc2c(c1)CCC=C2n1ccnc1", "152 to 153 °C"]
]}

Output melting point of CCOC(=O)N1C(c2ccccc2)OC(=O)C1c1ccccc1 (centres undefined)
197 to 199 °C

Complete the entry with melting point for CC(Cc1c[nH]c2ccccc12)(NC(=O)OC1C2CC3CC(C2)CC1C3)C(=O)NCC(=NOCC(=O)O)c1ccccc1 (centres undefined)
138 to 142 °C

Annotate the compound Cc1nsc(-c2ccc(Cl)nn2)n1 with its measured melting point.
180 °C

Identify measured melting point associated with COC(=O)C=C(Nc1cc(CCCl)c([N+](=O)[O-])cc1OCc1ccccc1)C(F)(F)F
105 to 110 °C

Item CN1C(=O)CN(c2cccc(C(F)(F)F)c2)NC1=O : provide melting point
163 to 165 °C

====

observedProperty: melting point

// solved cases for melting point follow
{"columns": ["compound", "melting point"],
 "data": [
  ["O=c1[nH]c2cc(Cl)cc(Cl)c2cc1Br", "> 300 °C"],
  ["CCOC(=O)c1cc2c3n(ccc-2n1)CC(CCl)=N3", "270 to 272 °C"],
  ["COP(=O)(c1ccccc1)c1ccc2c(c1)C(NC(=NC#N)Nc1ccc(Cl)cc1)C(O)C(C)(C)O2 (stereo not drawn)", "150 °C"],
  ["O=C(NCCCl)NCc1cccnc1", "95 °C"],
  ["Cn1c(C(F)(F)F)c(Cl)c(=O)n(-c2c(F)ccc3nc(Cl)sc23)c1=O", "81 to 83 °C"]
]}

Provide melting point value for the following compound: CCOC(=O)c1c(Sc2ccccc2)cc(C(F)(F)F)nc1C(F)(F)F
58 to 61 °C

Report melting point, nothing else, for this compound: O=c1[nH]cnc2c(Br)scc12
226 to 229 °C

Quickly give me recorded melting point for CCC1(O)CC(=O)OCc2c1cc1n(c2=O)Cc2c-1nc1cc(F)ccc1c2-c1ccccc1 (stereo not drawn)
> 250 °C

Return value of melting point for input CN1CCOc2cc(N)ccc2C1=O , no commentary.
169 to 170 °C

Find the measured melting point of O=C1c2c(Cl)cccc2-n2c1nc1ccccc1c2=O and report it.
294 to 296 °C

====

Below: a set of entries, each annotated with reported melting point.

{"columns": ["compound", "observedProperty", "experimentalValue"],
 "data": [
  ["Cc1nc(N2CCN(c3ccccc3)C2=O)sc1C(=O)NCc1ccccc1", "melting point", "234 to 236 °C"],
  ["CCNC(=O)c1ccsc1[Si](C)(C)C", "melting point", "114 to 116 °C"]
]}

Report measured melting point; entry is CNC(=O)[C@@H]1C[C@@H](OC)CN1S(=O)(=O)c1ccc(Cl)c(CBr)c1Cl
64 °C

Respond only with melting point recorded for Clc1ccc2nc3c(nc2c1)-c1cccc2cccc-3c12
224 to 225 °C

Give the value of melting point reported for the following: N#Cc1ccc(NC(=O)c2cccc(OCc3ccc(F)cc3)c2)nc1
170 to 171 °C

Provide measured melting point value, entry: CCCC(=O)c1cnc2c(C(=O)O)cccc2c1Nc1ccccc1C
179 to 180 °C

Dear colleague, please send me the reported melting point for CCON=C(C(C)=NOCc1ccccc1C(=NOC)C(=O)OC)c1ccc(Oc2ccc(Cl)cc2)cc1 when you can.
90 to 93 °C

Please look at this compound and report its melting point: COC(=O)c1c(Cl)cc(Cl)cc1NC(=O)CSc1ccc(NC(=O)Cc2cccc(Br)c2)cc1
177 to 180 °C

Let me know recorded melting point for O=C1OC(=O)c2cc(Oc3ccc(C(F)(F)F)cc3Cl)ccc21 , thanks.
88 to 91 °C

Respond only with melting point recorded for N#CCc1ccc(OC(F)F)c(OC2CCCC2)c1
39 to 41 °C

Fill in reported melting point for this entry: COc1ccc(C2NCCS2)cc1 (centres undefined)
94 to 95 °C

Give the reported value of melting point for this record: O=C(NN1CCCCC1)c1nc(-c2ccc(Cl)cc2Cl)n(-c2ccc(Cl)cc2)c1CF
162 to 163 °C

State its melting point for this compound: CCCCCNC(=O)[C@@H](Cc1ccc(OCC(=O)O)c(C(=O)O)c1)NC(=O)Cc1ccccc1OC
146 to 148 °C

Name the recorded melting point of the compound listed here: CC(Cc1cccc([N+](=O)[O-])c1)NC=O (centres undefined)
99 to 100 °C

====

melting point values, listed per item

The cases that follow already have their melting point on record.
{"columns": ["molecule", "melting point"],
 "data": [
  ["CNC(=O)C(=NOC)c1ccccc1COc1ccc2c(c1)OCC2=NOC", "143 to 145 °C"],
  ["Cc1ccccc1C(=O)Nc1ccc(C(=O)N2CCCC(OCC(=O)O)c3cc(Cl)ccc32)cn1 (centres undefined)", "220 to 222 °C"],
  ["Fc1ccc2c(C3CCC4(CC3)OCCO4)c[nH]c2c1", "158 to 159 °C"]
]}

# input for lookup
Give recorded melting point. CN(C)C(=O)N(O)Cc1cc2ccccc2s1
145 to 147 °C

====

Overview of reported melting point across a group of molecules:

// below: answered molecules
{"columns": ["molecule", "melting point"],
 "data": [
  ["CCN1C(=O)Cc2cc(C(=O)OC)ccc21", "97 to 98 °C"],
  ["Nc1sc2c(c1C(=O)c1ccsc1)CCC(Cc1ccccc1)C2 (stereo unspecified)", "57 to 58 °C"]
]}

Report melting point for O=[N+]([O-])c1cc2c(c([N+](=O)[O-])c1)CCCC2
93 °C

Consider the molecule CC(=O)CC(O)c1ccc(-c2ccc(N3C[C@H](Cn4ccnn4)OC3=O)cc2F)cn1 (stereo partly specified) and give its recorded melting point.
130 to 135 °C

Consider the molecule O=C1N(Cc2ccc(C(F)(F)F)o2)c2cc3c(cc2C12COc1cc4c(cc12)CCO4)OCCO3 (stereo unspecified) . State its measured melting point.
189 to 191 °C

Consider the molecule CCOC(=O)Nc1cc(-n2cc(C(=O)OCC)c(=O)c3c(OCc4ccccc4)c(F)c(F)cc32)c(F)cc1F and give its recorded melting point.
130 to 134 °C

Identify melting point associated with the molecule CCCCCCC(C)(C)c1cc(OCc2ccccc2)c(C2=C(CC(=O)O)CCC(C)C2)c(OCc2ccccc2)c1 (stereo unspecified)
69 to 70 °C
